# target_or_test_system: Pfs48/45 D3 (Plasmodium falciparum 3D7, UniProt Q8I6T1)
# Sequence (Q8I6T1 287-428): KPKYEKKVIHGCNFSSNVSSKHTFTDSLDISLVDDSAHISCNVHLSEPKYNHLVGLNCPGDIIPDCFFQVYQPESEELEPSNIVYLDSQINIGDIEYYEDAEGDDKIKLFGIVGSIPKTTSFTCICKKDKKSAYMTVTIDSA
# assay_explanation: ELISA
# condition_summary: both partners purified

binder | binding result
RUPA-106 (antibody, V domains shown, human IgG1; source: recombinant human IgG1, 293T (Protein A purified) or GenScript) VH: EVELLESGGGLVQPGGSLRISCAASGFIFNTYAMSWVRQAPGKGLEWVSAISGSGRSTYYADSVKGRFTISRDNSNNTLYLQMNSLRAEDTAVYYCAKDTHSNILYYLFDYWGQGTLVTVSS VL: EIVLTQSPATLSLSPGERGTLSCRASQSVSSSYLGWYQQKPGQAPRLLIYGASSRATGIPDRFSGSGSGTDFTLTISRLEPEDFAVYYCHQYGISPATFGQGTKVEIK | binds
RUPA-154 (antibody, V domains shown, human IgG1; source: recombinant human IgG1, 293T (Protein A purified) or GenScript) VH: QVQLVQSGAEVRKPGASVKVSCRTSGYTFTDYYMHWVRQAPGEGLEWMGSINPKSGGTSYAERFQGRVTMTMETSVSTAYLDLSSLRSDDTAVYYCARLLYSRAVYYYGMDVWGQGTTVTVSS VL: SYELTQPPSVSVAPGKTARITCGGKDLGSKSVHWYQQKPGQAPVLVIYYDNIRPSGIPERFSGSNSGNTATLTISRVEAGDEADYYCQVWDSSSDHYVFGRGAKVTVL | binds
RUPA-117 (antibody, V domains shown, human IgG1; source: recombinant human IgG1, 293T (Protein A purified) or GenScript) VH: QLQLQESGPGLVKPSETLSLTCTVSGGSISRSPYYWGWIRQPPGKGLEWFGSVYNNGSTYYNPSLKSRVTISVDTSKNQFSLKLSSVTAADTALYYCARHGGSTGMKVVVIAPPDYWGQGTLVTVSS VL: DIQMTQSPATLSASVGDRVTITCRASQSISIWLAWYQQKPGEAPKLLIYKASSLQSGVPSRFSGSASGTKFSLTISSLQPDDFATFYCQQYHSYPYTFGQGTKLEIK | binds
RUPA-140 (antibody, V domains shown, source: recombinant human IgG1, 293T (Protein A purified) or GenScript) VH: EVQLLESGGGLVQPGGSLRLSCVASGFSFSNFAMNWVRQAPGKGLEWVSAISGSGGSTYYIDSVKGRFSISRDTSKNTLYLQMNSLRAEDTAVYYCAKVGGRSIFGEATDYWGQGSLVTVSS VL: DIQMTQSPSSLSASVGDRVTITCRASQSINKYLNWYQQKPGRAPKLLIQVASSLQSGVPSRFSGSGSGTDFTLTISSLQPEDFATYYCQQTYTLPLIFGGGTKVEIK | binds
